- TEST DESCRIPTION: Stability in pH 7.4 buffer (no enzyme)
- Format: physicochemical
- RUN PARAMETERS: buffer, read-out: T1/2 pH 7.4 Buffer
half-life at 10 μM values by entry
ENDPOINT NAME: half-life at 10 μM

CC1=C[C@@H]2CN(C(=O)N2O[C@H](F)C(=O)OCc2ccccc2)[C@@H]1C(N)=O: 22 min
CC1=C[C@@H](C(N)=O)N2C[C@@H]1N(O[C@@H](F)C(=O)OC(C)C)C2=O: 91 min
CC[C@H](C)OC(=O)[C@@H](F)ON1C(=O)N2C[C@H]1C=C(C)[C@H]2C(N)=O: 39 min
CCOC(=O)[C@@H](F)ON1C(=O)N2C[C@H]1C(C)=C[C@H]2C(N)=O: 44 min
CCC(CC)OC(=O)[C@@H](F)ON1C(=O)N2C[C@H]1C=C(C)[C@H]2C(N)=O: > 100 min
CCOC(=O)[C@H](F)ON1C(=O)N2C[C@H]1C(C)=C[C@H]2C(N)=O: 22 min
CC1=C[C@@H](C(N)=O)N2C[C@@H]1N(O[C@H](F)C(=O)OC(C)C)C2=O: 186 min
CC[C@@H](C)OC(=O)[C@@H](F)ON1C(=O)N2C[C@H]1C=C(C)[C@H]2C(N)=O: 38 min
CCOC(=O)[C@@H](F)ON1C(=O)N2C[C@H]1C(C)=C[C@H]2C#N: 46.9 min
CCOC(=O)[C@H](F)ON1C(=O)N2C[C@H]1C=C(C)[C@H]2C(N)=O: 29 min
CCOC(=O)[C@@H](F)ON1C(=O)N2C[C@H]1C=C(C)[C@H]2C(N)=O: 41 min

====

- TEST DESCRIPTION: Stability in pH 7.4 buffer (no enzyme)
- Assay type: physicochemical
- RUN PARAMETERS: HEPES buffer without enzyme, read-out: T1/2 pH 7.4 Buffer
- Text: The human intestinal S9 with the absence of PMSF, human liver S9, rat intestinal S9, and rat liver S9 preparations were obtained from Xenotech (Lenexa, Kans.). […] A Waters Atlantis T3 (3 μm, 3.0×50 mm) column was used for separation. […] For the prodrug analysis, the Multiple Reaction Monitoring (MRM) specific for each compound was set up so that both prodrug and its hydrolyzed active can be monitored simultaneously. […]
Structures can show the parent of a compound that is named as a salt.
Here the recorded half-life at 10 μM is given for each entry.
ENDPOINT NAME: half-life at 10 μM

CCOC(=O)CON1C(=O)N2C[C@H]1C=C(C)[C@H]2C(N)=O [Example 9]: 18.3 min
CCOC(=O)[C@@H](F)ON1C(=O)N2C[C@H]1C=C(C)[C@H]2C(=O)NCO [Example 86]: 39 min
CCCOC(=O)[C@@H](F)ON1C(=O)N2C[C@H]1C=C(C)[C@H]2C(N)=O [Example 48]: 62 min
CCOC(=O)[C@H](F)ON1C(=O)N2C[C@H]1C=C(C)[C@H]2C(=O)NOC[C@@H]1CCCN1 [Example 60, TFA salt]: 29 min
CC1=C[C@@H]2CN(C(=O)N2O[C@H](F)C(=O)OC(C(C)C)C(C)C)[C@@H]1C(N)=O [Example 15]: 98 min
CCOC(=O)[C@H](F)ON1C(=O)N2C[C@H]1C=C(C)[C@H]2C(=O)NCO [Example 85]: 26 min
CCOC(=O)C(F)(F)ON1C(=O)N2C[C@H]1C=C(C)[C@H]2C(N)=O [Example 7]: 3.9 min
CC1=C[C@@H]2CN(C(=O)N2O[C@H](F)C(=O)OC(C)C)[C@@H]1C(N)=O [Example 12]: 236 min
CCOC(=O)C(F)(F)ON1C(=O)N2C[C@H]1C(C)=C[C@H]2C(N)=O [Example 90]: 2.9 min
CC1=C[C@@H]2CN(C(=O)N2O[C@H](F)C(=O)OCC(C)C)[C@@H]1C(N)=O [Example 49]: 68 min
CC1=C[C@@H]2CN(C(=O)N2O[C@@H](F)C(=O)OC(C)C)[C@@H]1C(N)=O [Example 13]: 55 min
CCCCCCCCOC(=O)[C@@H](F)ON1C(=O)N2C[C@H]1C=C(C)[C@H]2C(N)=O [Example 45]: 33 min
C=CCOC(=O)[C@@H](F)ON1C(=O)N2C[C@H]1C=C(C)[C@H]2C(N)=O [Example 47]: 12 min
CC1=C[C@@H]2CN(C(=O)N2O[C@H](F)C(=O)OCOC(=O)C(C)(C)C)[C@@H]1C(N)=O [Example 64]: 1.2 min
CC1=C[C@@H]2CN(C(=O)N2O[C@H](F)C(=O)Oc2ccc3c(c2)CCC3)[C@@H]1C(N)=O [Example 65]: 1.7 min
CCOC(=O)CON1C(=O)N2C[C@H]1C(C)=C[C@H]2C(N)=O [Example 92]: 161 min
CCCCOC(=O)[C@@H](F)ON1C(=O)N2C[C@H]1C=C(C)[C@H]2C(N)=O [Example 50]: 120 min
COCCOC(=O)[C@@H](F)ON1C(=O)N2C[C@H]1C=C(C)[C@H]2C(N)=O [Example 18]: 18 min
